Test: Plasma pharmacokinetics of belinostat and belinostat glucuronide (LC/MS/MS, noncompartmental analysis)
Conditions: human, plasma, iv, AUCINF, cycle 1 day 1; dose level 1, belinostat 800 mg/m^2 IV (pevonedistat 20 mg/m^2); n=2, actual values
MEASURED PARAMETER: AUC(0-inf) (µM·h)
Your answer is read as µM·h, so omit the unit and give the number.

Ask | Return reported AUC(0-inf); argument: O=C(/C=C/c1cccc(S(=O)(=O)Nc2ccccc2)c1)NO
Reply | 54.6

---

Assay: Plasma pharmacokinetics of belinostat and belinostat glucuronide (LC/MS/MS, noncompartmental analysis)
Conditions: human, plasma, iv, T1/2, cycle 1 day 1; dose level 5, belinostat 1000 mg/m^2 IV (pevonedistat 50 mg/m^2); mean±SD, n=4
MEASURED PARAMETER: half-life (min)
Your answer is read as min, so omit the unit and give the number.

Ask | Return reported half-life; argument: O=C(/C=C/c1cccc(S(=O)(=O)Nc2ccccc2)c1)NO [Belinostat]
Reply | 47.4
